# key: entry, value: Inhibition Rate ([Cpd.]=40 uM)
Target: SARS-COV-2 3CLpro (having a P132H mutation, 3CLpro^P132H) (Severe acute respiratory syndrome coronavirus 2, UniProt P0DTD1, P3395H)
Type: biochemical

COc1ccc(N2C(=O)C3C(Cc4c[nH]c5ccccc45)NC4(C(=O)Nc5ccccc54)C3C2=O)cc1 (centres unmarked) = < 0.5

get_value(item= Cn1c(NC(=O)c2cnn3c(C(F)(F)F)cc(-c4cccc5ccccc45)nc23)nc2ccccc21 [E1] , readout=Inhibition Rate ([Cpd.]=40 uM)) returns 0.82

get_value(item= O=C1[C@@H]2Cc3c([nH]c4ccccc34)C(c3cccc([N+](=O)[O-])c3)N2C(=O)CN1CC(O)c1ccccc1 (some centres unmarked) , readout=Inhibition Rate ([Cpd.]=40 uM)) returns < 0.5

get_value(item= Cc1ccc(N2C(=O)N(CC(=O)Nc3cccc(S(N)(=O)=O)c3)C(=O)C2C)cc1 (centres unmarked) , readout=Inhibition Rate ([Cpd.]=40 uM)) returns < 0.5

get_value(item= COc1cccc(-n2c(=O)c3c(C)c(C(=O)N(C)C)sc3n(Cc3cccc(F)c3)c2=O)c1 , readout=Inhibition Rate ([Cpd.]=40 uM)) returns < 0.5

get_value(item= CC(C)[C@H](NS(=O)(=O)c1ccccc1F)C(=O)OCC(=O)Nc1cccc(S(N)(=O)=O)c1 , readout=Inhibition Rate ([Cpd.]=40 uM)) returns < 0.5

----------
Target: SARS-COV-2 3CLpro (having a P132H mutation, 3CLpro^P132H) (Severe acute respiratory syndrome coronavirus 2, UniProt P0DTD1, P3395H)
Assay type: biochemical
TEST READOUT: Inhibition Rate ([Cpd.]=40 uM)

In the examples that follow, each entry is paired with its recorded Inhibition Rate ([Cpd.]=40 uM).
O=C(c1cccc(O)c1)N1C[C@@H](c2cc(F)cc(F)c2)[C@@H]2[C@H]1C1CCN2CC1 [D24] = < 0.5
COc1cccc(CN(CCc2c[nH]c3ccccc23)C(=O)c2ccnn2C)c1 [E19] = < 0.5
CC(=O)N1CCc2c(sc3c2c(=O)n(Cc2ccccc2)c(=O)n3Cc2cccc(C)c2)C1 [E13] = < 0.5

get_value(item= CC(=O)N1CCc2c(sc3c2c(=O)n(-c2ccccc2)c(=O)n3CC(=O)c2ccc(F)cc2)C1 [D22] , readout=Inhibition Rate ([Cpd.]=40 uM)) returns < 0.5

get_value(item= CCN(CC)C(=O)c1sc2c(c1C)c(=O)n(-c1ccccc1)c(=O)n2Cc1cccc(Cl)c1 [E15] , readout=Inhibition Rate ([Cpd.]=40 uM)) returns < 0.5

get_value(item= O=CN1CCCN(C(=O)CC2C(=O)NCCN2Cc2cccc(Oc3ccccc3)c2)CC1 (stereo not drawn) [D16] , readout=Inhibition Rate ([Cpd.]=40 uM)) returns < 0.5

----------
Molecular target: SARS-COV-2 3CLpro (having a P132H mutation, 3CLpro^P132H) (Severe acute respiratory syndrome coronavirus 2, UniProt P0DTD1, P3395H)
Format: biochemical
# key: entry, value: Inhibition Rate ([Cpd.]=40 uM)

O=C(Nc1ccccc1)N1CCCC(C(=O)N2CC(C(=O)N3CCCCC3)Oc3ccccc32)C1 (centres unmarked) [D19] = < 0.5

get_value(item= COCCn1/c(=N/C(=O)c2c(F)cccc2F)sc2cc(S(N)(=O)=O)ccc21 [D23] , readout=Inhibition Rate ([Cpd.]=40 uM)) returns < 0.5

get_value(item= COc1ccccc1-n1c(=O)c2c3c(sc2n(Cc2ccccc2)c1=O)CN(C(C)=O)CC3 [D17] , readout=Inhibition Rate ([Cpd.]=40 uM)) returns < 0.5

get_value(item= COc1ccc(Cn2cc(C(CC(=O)N3CCCC3)c3ccccc3F)c3ccccc32)cc1 (centres unmarked) [D4] , readout=Inhibition Rate ([Cpd.]=40 uM)) returns < 0.5

get_value(item= CC(=O)N1C(C(=O)N(CCc2ccccc2)Cc2ccccc2)CSC1c1ccccc1O (centres unmarked) [E7] , readout=Inhibition Rate ([Cpd.]=40 uM)) returns 0.63

----------
Target: SARS-COV-2 3CLpro (having a P132H mutation, 3CLpro^P132H) (Severe acute respiratory syndrome coronavirus 2, UniProt P0DTD1, P3395H)
Format: biochemical
TEST READOUT: Inhibition Rate ([Cpd.]=40 uM)
Lab note: record the figure alone, no unit after it.

O=C(CN1C(=O)NC2(CCCC2)C1=O)Nc1ccccc1C(=O)Nc1ccc2c(c1)OCO2 [D2] = 0.56

Could you now consider this next molecule?
get_value(item= CCn1c(=O)n(CCC(=O)NC(Cc2ccccc2)c2nc3ccccc3[nH]2)c2ccccc21 (centres unmarked) [E2] , readout=Inhibition Rate ([Cpd.]=40 uM)) returns 0.67

----------
# key: entry, value: Inhibition Rate ([Cpd.]=40 uM)
Biological target: SARS-COV-2 3CLpro (having a P132H mutation, 3CLpro^P132H) (Severe acute respiratory syndrome coronavirus 2, UniProt P0DTD1, P3395H)
Format: biochemical

O=C(c1ccsc1)N1CCC[C@H](n2c(=O)n(Cc3cccc(F)c3)c3cccnc32)C1 [D8] = < 0.5
O=C(c1ccco1)N1CCC[C@H](n2c(=O)n(Cc3ccccc3)c3cccnc32)C1 [D18] = < 0.5
CC(=O)N1CCc2c(sc3c2c(=O)n(-c2ccc(F)cc2)c(=O)n3Cc2cc(C)ccc2C)C1 [E3] = 0.92
CN(CCCN(Cc1cccn1Cc1ccc(Cl)cc1)C(=O)Nc1ccccc1)c1ccccc1 [E11] = < 0.5
CC(=O)c1ccc(C(=O)N2CCc3c([nH]c4ccccc34)C2c2ccccc2F)s1 (centres unmarked) [E18] = < 0.5

get_value(item= CC(=O)N1CCc2c(sc3c2c(=O)n(-c2ccccc2C)c(=O)n3Cc2cc(C)ccc2C)C1 [E16] , readout=Inhibition Rate ([Cpd.]=40 uM)) returns < 0.5

get_value(item= COCc1ccc(C(=O)N(Cc2ccccc2)Cc2nc3ccccc3c(=O)[nH]2)cc1 [E20] , readout=Inhibition Rate ([Cpd.]=40 uM)) returns < 0.5

----------
Target: SARS-COV-2 3CLpro (having a P132H mutation, 3CLpro^P132H) (Severe acute respiratory syndrome coronavirus 2, UniProt P0DTD1, P3395H)
Type: biochemical
# key: entry, value: Inhibition Rate ([Cpd.]=40 uM)

In the examples that follow, each entry is paired with its recorded Inhibition Rate ([Cpd.]=40 uM).
O=C(c1cc(=O)c2ccccc2o1)N1CCc2c([nH]c3ccccc23)C1c1ccccc1F (stereo not drawn) = < 0.5
CC1CC(C)CN(C(=O)c2ccccc2NC(=O)N2CC(O)CC(F)(F)C2)C1 (stereo not drawn) = < 0.5

get_value(item= C/C(=N\Nc1nc2c(c(O)nc(=O)n2C)n1Cc1cccc2ccccc12)c1ccc(O)cc1 , readout=Inhibition Rate ([Cpd.]=40 uM)) returns < 0.5

get_value(item= Cc1cccc(Cn2c(=O)c(C(=O)NCc3ccco3)nn(-c3ccccc3F)c2=O)c1 , readout=Inhibition Rate ([Cpd.]=40 uM)) returns 0.66

get_value(item= O=C(c1cccnc1)N1CCc2c([nH]c3ccccc23)C1c1cccc(C(F)(F)F)c1 (stereo not drawn) , readout=Inhibition Rate ([Cpd.]=40 uM)) returns 0.55

get_value(item= O=C(NC(c1ccccc1)c1ccc2[nH]cnc2c1)C1=NN(C2CCS(=O)(=O)C2)C(=O)CC1 (stereo not drawn) , readout=Inhibition Rate ([Cpd.]=40 uM)) returns < 0.5

get_value(item= NC(=O)C[C@H]1CN(C(=O)COc2ncccn2)C[C@H]1OC(=O)c1ccccc1 , readout=Inhibition Rate ([Cpd.]=40 uM)) returns < 0.5

----------
Target: SARS-COV-2 3CLpro (having a P132H mutation, 3CLpro^P132H) (Severe acute respiratory syndrome coronavirus 2, UniProt P0DTD1, P3395H)
Format: biochemical
# key: entry, value: Inhibition Rate ([Cpd.]=40 uM)

In the examples that follow, each entry is paired with its recorded Inhibition Rate ([Cpd.]=40 uM).
COc1ccc(/N=C(/Nc2ccc(OC)cc2)c2cccc3ccccc23)cc1 [E10] = < 0.5
Cn1nccc1C(=O)N1CCC[C@H](n2c(=O)n(Cc3ccccc3)c3cccnc32)C1 [D15] = < 0.5

get_value(item= COc1ccccc1-n1c(=O)c2c3c(sc2n(Cc2cccc(F)c2)c1=O)CN(C(C)=O)CC3 [D5] , readout=Inhibition Rate ([Cpd.]=40 uM)) returns < 0.5

----------
Biological target: SARS-COV-2 3CLpro (having a P132H mutation, 3CLpro^P132H) (Severe acute respiratory syndrome coronavirus 2, UniProt P0DTD1, P3395H)
Type: biochemical
# key: entry, value: Inhibition Rate ([Cpd.]=40 uM)

In the examples that follow, each entry is paired with its recorded Inhibition Rate ([Cpd.]=40 uM).
C[C@@]1(O)C[C@H](O)CN(C(=O)[C@@H](N)Cc2ccc(O)cc2)C[C@H]1n1cnc2c(N)nc(N)nc21 [D20] = < 0.5
O=C(CSc1nc(-c2ccccc2F)nc2c1cnn2-c1ccccc1)NC1CC1 [E23] = < 0.5
CC(C)C(NC(=O)c1ccccc1Cl)C(=O)OCC(=O)Nc1cccc(S(N)(=O)=O)c1 (stereo not shown) [D6] = < 0.5

get_value(item= C/C(=N\Nc1nc2c(c(=O)[nH]c(=O)n2C)n1Cc1cccc2ccccc12)c1ccc(O)cc1 [D1] , readout=Inhibition Rate ([Cpd.]=40 uM)) returns 1.49
